Provide the reported LD50 at 168 h of each item.
# ASSAY TEXT: in vivo
# EXPERIMENTAL CONDITIONS: mouse, po

Prompt line: Which value of LD50 at 168 h has been reported for CC(O)C1NC(=O)OC1c1ccccc1 (stereo not drawn) in the records?
Response line: > 1000 mg/kg

Prompt line: Another molecule: CCCC(O)(CCC)C1COC(=O)N1 (stereo not drawn)
Response line: > 1000 mg/kg

Prompt line: Then CCCC(O)(CCC)C1NC(=O)OC1c1ccccc1 (stereo not drawn) ?
Response line: > 1000 mg/kg

Prompt line: Further, for O=C1NC(CBr)C(c2ccccc2)O1 (stereo not drawn) ?
Response line: > 1000 mg/kg

Prompt line: Subsequent entry: CC(C)(O)C1NC(=O)OC1c1ccccc1 (stereo not drawn)
Response line: > 1000 mg/kg

Prompt line: Repeat with C=CCC(O)(c1ccccc1)C1COC(=O)N1 (stereo not drawn)
Response line: > 1000 mg/kg

Prompt line: Field entry: CCCC(C)(COC(N)=O)COC(N)=O [Meprobamate, reference compound]
Response line: 1000 mg/kg

Prompt line: And what about the molecule CCC(O)(CC)C1NC(=O)OC1c1ccccc1 (stereo not drawn) ?
Response line: > 1000 mg/kg

Prompt line: Same question, C=CCC(O)(CC=C)C1NC(=O)OC1c1ccccc1 (stereo not drawn) this time
Response line: 1000 mg/kg

Prompt line: Next molecule: CCC(O)(c1ccccc1)C1COC(=O)N1C (stereo not drawn)
Response line: 800 mg/kg

Prompt line: Entry to check: O=C1NC(C(O)(c2ccccc2)c2cccc(Cl)c2)CO1 (stereo not drawn)
Response line: > 1000 mg/kg

Prompt line: Try this molecule next: CC(O)(c1ccc(Cl)cc1)C1COC(=O)N1 (stereo not drawn)
Response line: > 1000 mg/kg

Prompt line: Further, for CC1(CO)NC(=O)OC1(C)c1ccccc1 (stereo not drawn) ?
Response line: > 100 mg/kg

Prompt line: Same again, this time with CCC(O)(c1ccccc1)C1COC(=O)N1 (stereo not drawn)
Response line: > 1000 mg/kg

Prompt line: Now give it for C=CCC(O)(CC=C)C1NC(=O)OC1C (stereo not drawn) too.
Response line: > 1000 mg/kg

Prompt line: Try this molecule next: CN1C(=O)OC(C)(C)C1=O [Trimethadione, reference compound]
Response line: > 1000 mg/kg

Prompt line: Same thing, different molecule: CC1(c2ccccc2)OC(=O)NC1CCl (stereo not drawn)
Response line: > 1000 mg/kg

Prompt line: Repeat for the following molecule: CCCC(O)(c1ccccc1)C1COC(=O)N1 (stereo not drawn)
Response line: > 1000 mg/kg

Prompt line: Try this molecule next: O=C1NC(CCl)C(c2ccccc2)O1 (stereo not drawn)
Response line: > 1000 mg/kg

Prompt line: Follow-up entry: O=C1NC(C(O)c2ccc(Cl)cc2)CO1 (stereo not drawn)
Response line: > 1000 mg/kg

Prompt line: Field entry: CCC(O)(c1ccccc1)C1NC(=O)OC1C (stereo not drawn)
Response line: > 1000 mg/kg

* * *

# ASSAY TEXT: paralysis: loss of the postural and balancing reflexes (lying down)
# Assay type: in vivo, mice
# EXPERIMENTAL CONDITIONS: Mus musculus, po; mice, p.o.; lying down in 50% of the animals; read-out: Paralysis ED50
Exercise: state measured ED50 for each of the compounds provided.
Field: numeric (mg/kg). Do not append units.

Prompt line: Query: ED50; subject: CCC(O)(c1ccc(Cl)cc1)C1COC(=O)N1 (centres unmarked)
Response line: 1000

Prompt line: Please answer likewise for CCCC(O)(CCC)C1COC(=O)N1 (centres unmarked)
Response line: 1000

Prompt line: Another: CC1(CO)NC(=O)OC1(C)c1ccccc1 (centres unmarked)
Response line: 1000

Prompt line: Another compound to check: C=CCC(O)(CC=C)C1NC(=O)OC1c1ccccc1 (centres unmarked)
Response line: 225

Prompt line: CC(C)(O)C1NC(=O)OC1c1ccccc1 (centres unmarked) ?
Response line: 1000

Prompt line: Now give it for CN1C(=O)OC(c2ccccc2)C1C(C)(C)O (centres unmarked) too.
Response line: 464

Prompt line: Same thing, different compound: C=CCC(O)(CC=C)C1NC(=O)OC1C (centres unmarked)
Response line: 1000

Prompt line: Let us now turn to C=CCC(O)(c1ccccc1)C1COC(=O)N1 (centres unmarked)
Response line: 1000

Prompt line: CCC(O)(c1ccccc1)C1COC(=O)N1C (centres unmarked) ?
Response line: 650

Prompt line: Can you check CCC(O)(c1ccccc1)C1COC(=O)N1 (centres unmarked) next?
Response line: 800

Prompt line: Record: CCC(O)(CC)C1NC(=O)OC1c1ccccc1 (centres unmarked)
Response line: 1000
